Would you mind telling me the reported IC50 of each entry?
target.system: HIV-1 PR (Human immunodeficiency virus type 1 group M subtype B)
protocol.description: HIV-protease inhibitory activity assay (FRET peptide substrate)
measurement.context: Test Example 1
Write down the value, and be sure its unit follows.

COc1ccc(S(=O)(=O)N(CC(C)C)CC(O)C(Cc2ccc(Oc3ccc(-c4sc5c(c4C(=O)O)CC(C)(C)CC5)cc3)cc2)NC(=O)OC2COC3(C)OCCC23)cc1 (stereo not drawn) = 1.53 nM

Please give IC50 for each item listed below.
1. COc1ccc(S(=O)(=O)N(CC(C)C)CC(O)C(Cc2ccc(N(C)Cc3cc(N4CCOCC4)ccc3-c3sc4c(c3C(=O)O)CC(C)(C)CC4)cc2)NC(=O)OC2COC3(C)OCCC23)cc1 (stereo not drawn)
2. CC(C)CN(CC(O)C(Cc1ccc(OCc2cc(C(=O)O)cc(-c3ccc(F)cc3F)c2)cc1)NC(=O)OC1COC2(C)OCCC12)S(=O)(=O)c1ccc2ncsc2c1 (stereo not drawn)

Given back:
1. 2.02 nM
2. 1.6 nM

* * *

target.system: HIV-1 PR (Human immunodeficiency virus type 1 group M subtype B)
protocol.description: HIV-protease inhibitory activity assay (FRET peptide substrate)
measurement.context: Test Example 1
property.label: IC50
Just the number plus its unit, please.

Respectfully, I request IC50 for each entry included below.
1. COc1ccc(S(=O)(=O)N(CC(C)C)CC(O)C(Cc2ccc(N3CCc4nc(-c5sc6c(c5C(=O)O)CC(C)(C)CC6)sc4C3)cc2)NC(=O)OC2COC3(C)OCCC23)cc1 (stereo not shown)
2. COc1ccc(S(=O)(=O)N(CC(C)C)CC(O)C(Cc2ccc(NCc3cc4c(cc3-c3sc5c(c3C(=O)O)CC(C)(C)CC5)OCO4)cc2)NC(=O)OC2COC3(C)OCCC23)cc1 (stereo not shown)
3. COc1ccc(S(=O)(=O)N(CC2CCCC2)CC(O)C(Cc2ccc(NCc3ccccc3-c3sc4c(c3C(=O)O)CC(C)(C)CC4)cc2)NC(=O)OC2COC3(C)OCCC23)cc1 (stereo not shown)
4. COc1ccc(S(=O)(=O)N(CC(C)C)CC(O)C(Cc2ccc(N(C)Cc3ccccc3C(=O)N(C)c3sc4c(c3C(=O)O)CC(C)(C)CC4)cc2)NC(=O)OC2COC3(C)OCCC23)cc1 (stereo not shown)

Given back:
1: 2.31 nM; 2: 1.41 nM; 3: 2.75 nM; 4: 2.82 nM

* * *

target.system: HIV-1 PR (Human immunodeficiency virus type 1 group M subtype B)
protocol.description: HIV-protease inhibitory activity assay (FRET peptide substrate)
Type: biochemical
measurement.context: Test Example 1
property.label: pIC50
Give bare numbers, as −log10 of the molar value.

# example entries with known answers
COc1ccc(S(=O)(=O)N(CC(C)C)CC(O)C(Cc2ccc(N(C)Cc3cc(-c4sc5c(c4C(=O)O)CC(C)(C)CC5)cc4ccccc34)cc2)NC(=O)OC2COC3(C)OCCC23)cc1 (stereo not drawn) [Compound I-703] = 8.34
COc1ccc(S(=O)(=O)N(CC(C)C)CC(O)C(Cc2ccc(N3CCC(c4ccc(-c5sc6c(c5C(=O)O)CC(C)(C)CC6)cc4)C3)cc2)NC(=O)OC2COC3(C)OCCC23)cc1 (stereo not drawn) [Compound I-576] = 8.31
COc1ccc(S(=O)(=O)N(CC(C)C)CC(O)C(Cc2ccc(N(C)Cc3cccc(C)c3-c3sc4c(c3C(=O)O)CC(C)(C)CC4)cc2)NC(=O)OC2COC3(C)OCCC23)cc1 (stereo not drawn) [Compound I-599] = 8.61

Below are some molecules; for each one, tell me its pIC50.
1. CC(C)CN(CC(O)C(Cc1ccc(CCc2sc3c(c2C(=O)O)CC(C)(C)CC3)cc1)NC(=O)OC1COC2(C)OCCC12)S(=O)(=O)c1ccc(N)cc1 (stereo not drawn) [Compound I-43]
2. COc1ccc(S(=O)(=O)N(CC(C)C)CC(O)C(Cc2ccc(NCc3ccc(C(=O)Nc4sc5c(c4C(=O)O)CC(C)(C)CC5)cc3)cc2)NC(=O)OC2COC3(C)OCCC23)cc1 (stereo not drawn) [Compound I-437]
3. COc1ccc(S(=O)(=O)N(CC(C)C)CC(O)C(Cc2ccc(OCCNC(=O)c3cccc(Cl)c3O)cc2)NC(=O)OC2COC3(C)OCCC23)cc1 (stereo not drawn) [Compound I-169]
4. COc1ccc(S(=O)(=O)N(CC(C)C)CC(O)C(Cc2ccc(N3CCN(c4ccc(C#N)cc4-c4sc5c(c4C(=O)O)CC(C)(C)CC5)CC3)cc2)NC(=O)OC2COC3(C)OCCC23)cc1 (stereo not drawn) [Compound I-232]
5. COc1ccc(S(=O)(=O)N(CC(C)C)CC(O)C(Cc2ccc(OCc3ccccc3-c3sc(Cl)c(C4CCCCC4)c3C(=O)O)cc2)NC(=O)OC2COC3OCCC23)cc1 (stereo not drawn) [Compound I-825]
6. COc1ccc(S(=O)(=O)N(CC(C)C)CC(O)C(Cc2ccc(OCc3ncsc3-c3sc4c(c3C(=O)O)CC(C)(C)CC4)cc2)NC(=O)OC2COC3(C)OCCC23)cc1 (stereo not drawn) [Compound I-89]

Given back:
8.70
8.35
9.06
8.39
8.99
8.95
